cytotoxicity at 70.5 h values for the compounds below.
# PROTOCOL_DESCRIPTION: Human HepG2 cell viability assay in 384 well format
# Format: toxicity, cell-based
# Parameters: dose 125 nL, time 70.5 hour; concentration not given beside the values
# REPORTED_CONDITIONS: HepG2 cells, read-out: Inhibition
ATTRIBUTE_MEASURED: cytotoxicity at 70.5 h (%)

> print(dat)
                                    compound  unit  test.value
 1  CC(C)c1ccc(OCCC(=O)N2CCCC(C(N)=O)C2)cc1 (stereo unspecified)     %       -5.32
 2  COc1ccccc1CCC(=O)N1CCCC(OCc2cccnc2)C1 (stereo unspecified)     %        26.8
 3  CCCNS(=O)(=O)c1cc2c3c(c1)c(C)cc(=O)n3CCC2     %      -0.859
 4  Cc1cccnc1C(=O)N1CCC(Cc2cnc3[nH]ccc3c2)CC1     %        21.2
 5  O=C(C[S+]([O-])c1ccc(F)c(F)c1)NCc1cc(F)cc(F)c1 (stereo unspecified)     %       -2.62
 6              COCCCNC(=O)Nc1c(C)cccc1C(C)C     %       -9.85
 7  c1nc2c(c(C3CCOC3)n1)CCN(Cc1ccoc1)CC2 (stereo unspecified)     %        7.95
 8  CSCCCN1CCCC1c1noc(C(C)C)n1 (stereo unspecified)     %      -0.353
 9  CC(Cc1c(F)cccc1F)NC(=O)Nc1cnn(CC(N)=O)c1 (stereo unspecified)     %       -3.56
10  Cc1ccc(NC(=O)Cc2c(C)nc3c(c2C)c(=O)[nH]n3C)cc1F     %        -4.3
11  CN(Cc1ccc(C2CC(=O)Nc3cc4[nH]ncc4cc32)o1)S(C)(=O)=O (stereo unspecified)     %      -0.109

====

cytotoxicity at 70.5 h values for the compounds below.
# PROTOCOL_DESCRIPTION: Human HepG2 cell viability assay in 384 well format
# Assay type: toxicity, cell-based
# Design: dose 125 nL, time 70.5 hour; concentration not given beside the values
# REPORTED_CONDITIONS: HepG2 cells, read-out: Inhibition
ATTRIBUTE_MEASURED: cytotoxicity at 70.5 h

> print(dat)
                                   compound      attribute.measured  test.value
1  Cn1c2c(c(=O)n1C)CN(C(=O)c1cccc(F)c1)CCC2  cytotoxicity at 70.5 h       1.87%
2  COc1cc(Cl)ccc1CNC(=O)N(C)C(C)CS(C)(=O)=O (stereo unspecified)  cytotoxicity at 70.5 h      -7.57%
3  CNC(=O)CN1CCCC1c1ccccc1Br (stereo unspecified)  cytotoxicity at 70.5 h      -6.18%
4  O=C1N(CC2CC2)CCCC1(O)CN1CCc2[nH]ncc2C1 (stereo unspecified)  cytotoxicity at 70.5 h      -4.29%
5   Cc1cccc(CN2CC3(CCN(C(N)=O)CC3)OCC2=O)n1  cytotoxicity at 70.5 h      -10.4%
6     Fc1ccccc1CN1CCCN(c2ccc3cc[nH]c3n2)CC1  cytotoxicity at 70.5 h      -4.59%

====

cytotoxicity at 70.5 h values for the compounds below.
# PROTOCOL_DESCRIPTION: Human HepG2 cell viability assay in 384 well format
# Assay type: toxicity, cell-based
# Set-up: dose 125 nL, time 70.5 hour; concentration not given beside the values
# REPORTED_CONDITIONS: HepG2 cells, read-out: Inhibition
ATTRIBUTE_MEASURED: cytotoxicity at 70.5 h (%)

> print(dat)
                                   compound  unit  test.value
1        Cc1nn(C)cc1-c1ccnc(N(C)Cc2ccoc2)n1     %       -3.89
2  Cc1cnc(CN(C)C2CCN(Cc3sc(C)nc3C)C2)o1 (stereo unspecified)     %        29.7
3  COCCN1CCCC(O)(CN2CCN(c3cc(C)ccn3)CC2)C1=O (stereo unspecified)     %      -0.635
4  CN(C)Cc1nn(C)c2c1CN(C(=O)Nc1cccc(F)c1)C2     %       -2.91
5  N#Cc1cnc(NCc2ccc(C(=O)NC3CC3)cc2)c(Cl)c1     %       -4.64
6  CN(Cc1cc(C2CC2)[nH]n1)C(=O)c1cnn2ccn(C)c12     %       -10.4

====

# PROTOCOL_DESCRIPTION: Human HepG2 cell viability assay in 384 well format
# Assay type: toxicity, cell-based
# Set-up: dose 125 nL, time 70.5 hour; concentration not given beside the values
# REPORTED_CONDITIONS: HepG2 cells, read-out: Inhibition
ATTRIBUTE_MEASURED: cytotoxicity at 70.5 h (%)

> print(dat)
                                    compound  test.value
 1          Brc1ccc(NCc2ccc(Cn3ccnc3)cc2)nc1        43.7
 2  CC1CCN(c2ccc(=O)n(CC(=O)N(C)Cc3ccccc3)n2)CC1        16.3
 3  Cc1nc(-c2cnn(C)c2)nc2c1CN(C(=O)c1cccn1C)CC2        1.91
 4           O=C(COc1ccc2c(c1)OCO2)NCc1ccco1       -5.95
 5  COc1ccccc1CNC(=O)CN(C)C(C)c1ccncn1 (centres undefined)       -18.5
 6  Cc1ccc(CS(=O)(=O)Cc2nc(N)nc(N(C)C)n2)cc1       0.995
 7  CSCCC(CO)NC(=O)c1ccc2[nH]/c(=N\S(C)(=O)=O)sc2c1 (centres undefined)       -13.7
 8     Cc1noc(-c2ccc(N[C@H]3CCCCNC3=O)nc2)n1       -1.42
 9  COCC(=O)N1CCc2cccc(S(=O)(=O)N3CCN(C)CC3)c2C1       -2.39
10               CCN(Cc1nonc1C)C(=O)c1cnccn1       -8.37
11       Cc1ccc(C(=O)N2CCCN(Cc3cccs3)CC2)n1C       -7.93
12               O=C(Cc1ccc(F)cc1)NCCc1ccoc1       -5.69
13  COCCn1nc(C(=O)N2CCOCC2C)ccc1=O (centres undefined)        16.9
14  COc1ccc(C[C@H]2CN(C(=O)CN(C)C)CC[C@H]2OC)cc1       -6.67
15  Cc1ccc(CN2CC[C@H]3OCC[C@@]3(C(=O)N3CCCO3)C2)o1        2.99
16  CC(C)CNC(=O)[C@H]1C[C@@H]2CN(C(=O)NCC3CCCCC3)C[C@H]1O2       -2.13
17  CNS(=O)(=O)c1cccc(C(C)NCc2ccsc2)c1 (centres undefined)      -0.542
18       O=C(NCc1ccc(CN2CCCCC2)cc1)Nc1cccnc1       -1.13
19  Cc1cc(C)c(C(=O)N[C@H](C(N)=O)c2ccccc2)c(=O)[nH]1        12.8
20  CN(C)CC1(O)CCN(C(=O)Cc2ccc3c(c2)CCC3)C1 (centres undefined)        0.63
21     CCc1cc(N2CCC(NCCc3ccccc3F)CC2)nc(C)n1        5.19
22  O=C(O)CN(Cc1ccsc1)CC1CCCO1 (centres undefined)       -2.27
23  CC(NC(=O)NCc1cccc(F)c1)(C(=O)O)c1ccco1 (centres undefined)       -8.22
24  CCCn1cc(C(=O)NC2CCN(CC(=O)NC3CC3)CC2)c(C)n1       0.264

====

# PROTOCOL_DESCRIPTION: Human HepG2 cell viability assay in 384 well format
# Type: toxicity, cell-based
# Parameters: dose 125 nL, time 70.5 hour; concentration not given beside the values
# REPORTED_CONDITIONS: HepG2 cells, read-out: Inhibition
cytotoxicity at 70.5 h values for the compounds below.
ATTRIBUTE_MEASURED: cytotoxicity at 70.5 h (%)

> print(dat)
                                   compound  unit  test.value
1         CCCc1nc(C)c(C(=O)NCc2ccc(C)n2C)s1     %        17.6
2         COc1cc(C)sc1C(=O)N1CC(c2cccnc2)C1     %       -3.92
3      COc1ccnc(N2CCN(CC(=O)N3CCOCC3)CC2)n1     %        2.32
4         CC(C)[C@H]1COC(=O)N1Cc1nccn1C1CC1     %       -3.35
5  O=C1NCCCCC1NS(=O)(=O)N1CCCCCC1 (stereo unspecified)     %       -13.8
6  CN(C(=O)CN1CCCC1c1cnn(C)c1)C(C)(C)C#N (stereo unspecified)     %        1.19
